This collection of values is drawn from patent US11945784B2.

Entries and their measured pEC50 follow.
molecular target: UniProt:O75460; test: In vitro luciferase assay (IRE1α Endoribonuclease Nanoluciferase Assay); details: 293T cells, XBP1 luciferase reporter
Sequence (O75460 19-977): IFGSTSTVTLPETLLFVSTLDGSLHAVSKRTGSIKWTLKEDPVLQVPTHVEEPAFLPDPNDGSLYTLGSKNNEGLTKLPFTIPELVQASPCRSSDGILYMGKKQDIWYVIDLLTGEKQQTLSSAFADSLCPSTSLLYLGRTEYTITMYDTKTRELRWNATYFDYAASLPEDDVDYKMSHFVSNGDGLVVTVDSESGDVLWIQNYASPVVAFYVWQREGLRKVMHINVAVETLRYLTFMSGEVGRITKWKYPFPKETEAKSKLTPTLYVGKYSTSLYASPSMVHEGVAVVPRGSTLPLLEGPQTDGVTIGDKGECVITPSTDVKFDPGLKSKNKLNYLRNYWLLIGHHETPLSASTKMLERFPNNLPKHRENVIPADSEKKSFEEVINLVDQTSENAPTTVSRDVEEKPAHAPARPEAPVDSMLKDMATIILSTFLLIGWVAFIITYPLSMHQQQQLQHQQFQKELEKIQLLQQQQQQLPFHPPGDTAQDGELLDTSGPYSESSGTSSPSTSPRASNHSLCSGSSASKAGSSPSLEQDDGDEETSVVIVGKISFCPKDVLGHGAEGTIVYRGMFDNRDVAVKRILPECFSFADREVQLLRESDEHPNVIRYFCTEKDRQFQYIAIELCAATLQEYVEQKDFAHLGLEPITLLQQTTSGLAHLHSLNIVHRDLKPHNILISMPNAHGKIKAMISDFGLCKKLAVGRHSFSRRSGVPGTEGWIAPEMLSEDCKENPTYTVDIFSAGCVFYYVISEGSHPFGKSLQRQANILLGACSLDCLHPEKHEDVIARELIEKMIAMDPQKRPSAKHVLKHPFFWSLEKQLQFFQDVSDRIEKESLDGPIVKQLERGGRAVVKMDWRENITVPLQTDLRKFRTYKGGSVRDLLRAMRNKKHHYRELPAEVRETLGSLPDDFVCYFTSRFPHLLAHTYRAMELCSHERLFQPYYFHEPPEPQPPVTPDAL
pEC50: −log10 of the molar value.

{"Molecule": "CCN(CC)C1CCC(Nc2ncc(/C=C/c3ccc(NS(=O)(=O)c4ccccc4Cl)nc3C)cn2)CC1 (stereo not shown)", "pEC50": "≥ 8.30"}
{"Molecule": "Cc1cc(NS(=O)(=O)c2ccccc2Cl)c(F)cc1/C=C/c1cnc(NC2CCC(N(C)C)CC2)nc1 (stereo not shown)", "pEC50": "≥ 8.30"}
{"Molecule": "CCc1nc(NS(=O)(=O)c2cnccc2Cl)ccc1/C=C/c1cnc(NC2CCC(N(C)C)CC2)nc1 (stereo not shown)", "pEC50": "7.30 to 8.30"}
{"Molecule": "Cc1nc(NS(=O)(=O)c2ccc(F)c(F)c2Cl)ccc1/C=C/c1cnc(NC2CCC(N(C)C)CC2)nc1 (stereo not shown)", "pEC50": "7.30 to 8.30"}
